melting point values for the compounds below.

- compound: "CO/N=C1\\CCCC[C@@H]1NC(=O)c1cnc(O[C@@H](C)C(F)(F)F)c(-c2ccc(Cl)cc2)n1 [Example 27]"
  melting point: "120 to 123 °C"
- compound: "CO/N=C(/CNC(=O)c1cnc(OCC(F)(F)F)c(-c2ccc(Cl)c(Cl)c2)c1)C(F)(F)F [Example 15]"
  melting point: "124 to 126 °C"
- compound: "CO/N=C1\\CCCC[C@@H]1NC(=O)c1ncc(O[C@@H](C)C(F)(F)F)c(-c2ccc(Cl)cc2)n1 [Example 28]"
  melting point: "180 to 182 °C"
- compound: "CO/N=C1\\CCCC[C@@H]1NC(=O)c1cc(-c2ccc(Cl)c(Cl)c2)c(OCC(F)(F)F)nn1 [Example 24]"
  melting point: "106 to 109 °C"
